Provide the reported IC50 of each item.
Biological target: human KHK-C (Homo sapiens (Human))
Experiment: KHK enzyme activity assay, human KHK-C (F1P production, RapidFire MS)
Details: fructose 250 μM, ATP 150 μM; average ± SEM; read-out: hKHK-C IC50
Answer with the number, then the unit.

If you can, please state the reported IC50 value of OC[C@H]1CCN1c1nc(-c2cnn(C3CNC3)c2)cc(C(F)(F)F)n1 .
41.9 nM

GET /values?readout=IC50&item= C[C@H]1CCN1c1nc(-c2cnn(CC(=O)N3CCNC(C)(C)C3)c2)cc(C(F)(F)F)n1
34.7 nM

Look up IC50: C[C@H]1CN(C(=O)Cn2cc(-c3cc(C(F)(F)F)nc(N4CC[C@@H]4C)n3)cn2)CCN1
38.6 nM

I would be grateful if you could share the reported IC50 for C[C@H]1[C@H](O)CN1c1nc(-c2cnn(C3CCNCC3)c2)cc(C(F)(F)F)c1C#N .
18.1 nM

Entry C[C@H]1CCN1c1nc(-c2cnn(C3CCN(C)CC3)c2)cc(C(F)(F)F)c1C#N has what IC50?
56.1 nM

Which IC50 value is on record for C[C@H]1CCN1c1nc(-c2cnn(CC(=O)N3CCNCC3)c2)cc(C(F)(F)F)n1 ?
20.7 nM

Which measured IC50 value corresponds to C[C@H]1CCN1c1nc(-c2cnn(C3CCNCC3)c2)cc(C(F)(F)F)n1 ?
15.5 nM

For the compound C[C@H]1CCN1c1nc(-c2cnn(CC(=O)N3C[C@H](O)[C@@H](O)C3)c2)cc(C(F)(F)F)c1C#N , what IC50 is on record?
41.6 nM

====

Experiment: Pharmacokinetics in dogs
Type: in vivo
Conditions: beagle, plasma; dog, fed, single IV dose 1 mg/kg
experimentalEndpoint: clearance (mL/min/kg)
Please reply with the bare figure in mL/min/kg and do not write the unit itself.

Entry OC[C@H]1CCN1c1nc(-c2cnn(C3CCNCC3)c2)cc(C(F)(F)F)n1 [Example 2] has what clearance?
19.6

# lookup: clearance of C[C@H]1CCN1c1nc(-c2cnn(CC(=O)N3CCNCC3)c2)cc(C(F)(F)F)n1 [Example 1]
3.41

====

Molecular target: human KHK-C (Homo sapiens (Human))
Assay: KHK enzyme activity assay, human KHK-C (F1P production, RapidFire MS)
Conditions: fructose 250 μM, ATP 150 μM; average ± SEM; read-out: hKHK-C IC50
Would you mind telling me the reported IC50 of each entry?
Just the number in nM, nothing appended.

Requested read-out: IC50. Entry: C[C@H]1[C@H](O)CN1c1nc(-c2cnn(C3CN(C)C3)c2)cc(C(F)(F)F)n1 [Example 35]
2.63

For the compound shown here, CC(=O)N1CCC(n2cc(-c3cc(C(F)(F)F)c(C#N)c(N4CC[C@@H]4C)n3)cn2)CC1 [Example 19] , give the reported IC50.
54.3

Using the record for C[C@@H]1CN(C(=O)Cn2cc(-c3cc(C(F)(F)F)nc(N4CC[C@@H]4C)n3)cn2)[C@@H](C)CN1 [Example 32] , report its IC50.
13.3

Endpoint output: IC50 of C[C@H]1CCN1c1nc(-c2cnn(CCN(C)C)c2)cc(C(F)(F)F)c1C#N [Example 10] . Value?
418

====

Test: Pharmacokinetics in Sprague Dawley rats
Type: in vivo
Conditions: plasma, rat, fasted, single PO dose 2 or 3 mg/kg
experimentalEndpoint: half-life (h)
Numeric only. Scale: h

So what's the measured half-life for this one? C[C@H]1CCN1c1nc(-c2cnn(CC(=O)N3CCNCC3)c2)cc(C(F)(F)F)n1
12.9

# lookup: half-life of OC[C@H]1CCN1c1nc(-c2cnn(C3CCNCC3)c2)cc(C(F)(F)F)n1
5.12

====

Target: UniProtKB P50053
Assay: KHK enzyme activity assay, human KHK-C (F1P production, RapidFire MS)
Details: fructose 250 μM, ATP 150 μM; average ± SEM; read-out: hKHK-C IC50
experimentalEndpoint: IC50 (nM)
Number in nM, nothing else.

Bench note: what IC50 did C[C@H]1[C@H](O)CN1c1nc(-c2cnn([C@@H]3CCNC3)c2)cc(C(F)(F)F)n1 show?
15.9

Would you mind telling me what IC50 value was observed for CN1CC(n2cc(-c3cc(C(F)(F)F)nc(N4CC[C@@H]4CO)n3)cn2)C1 ?
10

Give the measured IC50 of C[C@H]1[C@H](O)CN1c1nc(-c2cnn([C@H]3CCNC3)c2)cc(C(F)(F)F)n1 .
27.2

GET /values?readout=IC50&item= C[C@H]1CCN1c1nc(-c2cnn(CC(=O)NCCN)c2)cc(C(F)(F)F)n1
68

Query (compound): C[C@H]1CCN1c1nc(-c2cnn(C3CNC3)c2)cc(C(F)(F)F)n1 ; field requested: IC50
4.9

Reported IC50 for C[C@H]1CNCCN1C(=O)Cn1cc(-c2cc(C(F)(F)F)nc(N3CC[C@@H]3C)n2)cn1 : what is it?
46.3

What value of measured IC50 is listed for C[C@H]1CCN1c1nc(-c2cnn(C3CCN(C(=O)CN)CC3)c2)cc(C(F)(F)F)c1C#N ?
59.2

Sample C[C@H]1CCN1c1nc(-c2cnn(C3CCN(CCO)CC3)c2)cc(C(F)(F)F)c1C#N — what was its IC50?
6.26

====

Would you kindly list pIC50 for each of these molecules?
Biological target: human KHK-C (Homo sapiens (Human), UniProt P50053)
Sequence (P50053 whole entry): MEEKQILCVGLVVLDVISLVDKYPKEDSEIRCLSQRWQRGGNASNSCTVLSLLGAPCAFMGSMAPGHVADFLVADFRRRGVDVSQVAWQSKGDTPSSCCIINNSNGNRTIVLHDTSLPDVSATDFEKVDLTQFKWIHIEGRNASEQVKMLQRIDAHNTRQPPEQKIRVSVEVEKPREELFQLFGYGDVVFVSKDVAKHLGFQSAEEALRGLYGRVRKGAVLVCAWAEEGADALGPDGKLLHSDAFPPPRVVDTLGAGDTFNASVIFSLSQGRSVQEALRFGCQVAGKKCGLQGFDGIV
Test: KHK enzyme activity assay, human KHK-C (F1P production, RapidFire MS)
Conditions: fructose 250 μM, ATP 150 μM; average ± SEM; read-out: hKHK-C IC50
Note on pIC50: it is the negative log10 of concentration, concentration in mol/L.

Which value of pIC50 has been reported for C[C@H]1CCN1c1nc(-c2cnn(C3CN(C)C3)c2)cc(C(F)(F)F)n1 in the records?
8.43

Could you share which pIC50 value was measured for C[C@H]1CCN1c1nc(-c2cnn(CC(O)CO)c2)cc(C(F)(F)F)c1C#N (stereo partly shown) [Example 24] ?
8.10

What pIC50 value was documented for this molecule, C[C@H]1CCN1c1nc(-c2cnn(C3CCNCC3)c2)cc(C(F)(F)F)c1C#N ?
8.41

Reported pIC50 for N#Cc1c(C(F)(F)F)cc(-c2cnn(C3CCNCC3)c2)nc1N1CC[C@@H]1CO : what is it?
7.59

====

Experiment: Pharmacokinetics in Sprague Dawley rats
Format: in vivo
Settings: plasma, rat, fasted, PO 2 or 3 mg/kg vs IV 1 mg/kg
experimentalEndpoint: bioavailability (%)
Record the value in %, omitting the unit from your answer.

Value lookup for bioavailability; key = OC[C@H]1CCN1c1nc(-c2cnn(C3CCNCC3)c2)cc(C(F)(F)F)n1
95

Return reported bioavailability; argument: C[C@H]1CCN1c1nc(-c2cnn(CC(=O)N3CCNCC3)c2)cc(C(F)(F)F)n1
83

====

Test: Pharmacokinetics in dogs
Assay type: in vivo
Details: beagle, plasma; dog, fed, single IV dose 1 mg/kg
Task for the reader: assign each of the following compounds its reported half-life.
Reply with just the number (in h).

Fill blank: measured half-life of the compound C[C@H]1CCN1c1nc(-c2cnn(CC(=O)N3CCNCC3)c2)cc(C(F)(F)F)n1 [Example 1] is ____.
28

Fill blank: measured half-life of the compound OC[C@H]1CCN1c1nc(-c2cnn(C3CCNCC3)c2)cc(C(F)(F)F)n1 [Example 2] is ____.
10.3
